molecular target: CAL PDZ (human, UniProt Q9HD26); assay: FP, competition
Where no end group is shown, it is not given here.
# key: entry, value: Ki
observable: Ki (nM)

ANSRWQVTRV [ANSRWQVTRV (second entry)] : 1130
Ac-WPVTRV [Ac-WPVTRV] : 1220
Ac-LPVTRV [Ac-LPVTRV] : 4420
ANSRWQVTRV : 1170

Reference source: patent US20180318382
